# system: androgen receptor (adenovirus AdEasy+rAR in L929 cells) (Rattus norvegicus, UniProt P15207)
# Construct: expressed in transfected cells
# Sequence (P15207 1-902): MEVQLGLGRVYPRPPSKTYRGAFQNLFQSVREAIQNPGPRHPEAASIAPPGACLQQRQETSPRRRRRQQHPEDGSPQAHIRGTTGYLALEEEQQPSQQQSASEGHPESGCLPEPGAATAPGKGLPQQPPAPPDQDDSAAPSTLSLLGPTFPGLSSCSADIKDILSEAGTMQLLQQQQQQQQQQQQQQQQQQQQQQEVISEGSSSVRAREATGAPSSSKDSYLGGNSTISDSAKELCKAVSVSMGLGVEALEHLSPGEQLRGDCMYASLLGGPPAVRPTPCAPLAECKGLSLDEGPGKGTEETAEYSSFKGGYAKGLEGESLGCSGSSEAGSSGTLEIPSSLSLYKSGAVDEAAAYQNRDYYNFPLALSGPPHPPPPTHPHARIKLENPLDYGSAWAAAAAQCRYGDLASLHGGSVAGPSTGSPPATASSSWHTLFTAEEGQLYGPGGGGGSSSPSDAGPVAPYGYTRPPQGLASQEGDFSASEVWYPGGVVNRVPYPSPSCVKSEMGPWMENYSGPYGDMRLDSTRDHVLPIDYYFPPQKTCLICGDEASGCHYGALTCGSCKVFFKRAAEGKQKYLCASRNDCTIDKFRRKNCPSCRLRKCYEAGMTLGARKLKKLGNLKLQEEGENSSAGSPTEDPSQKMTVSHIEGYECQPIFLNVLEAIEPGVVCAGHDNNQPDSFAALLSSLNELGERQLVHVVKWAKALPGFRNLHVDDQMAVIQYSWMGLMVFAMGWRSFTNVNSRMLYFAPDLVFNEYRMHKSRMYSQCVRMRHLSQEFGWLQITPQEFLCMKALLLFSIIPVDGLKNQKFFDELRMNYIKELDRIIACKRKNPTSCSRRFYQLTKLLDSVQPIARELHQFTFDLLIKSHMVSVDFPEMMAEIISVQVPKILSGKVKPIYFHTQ
# experiment: L929 Androgen Receptor Functional Assay, Adenovirus Transduction
# Format: cell-based
# condition: L929 agonist testing; 3000 nM
measurement-type: % Activity (%)
Numbers only, in %.

molecule: COc1ccc(S(=O)(=O)CC(C)(O)c2cc3cc(Cl)c(C(F)(F)F)cc3[nH]2)cc1 (racemic) [compound 129]
units-text: %
% Activity: −5
--
molecule: CCSCC(C)(O)c1cc2cc(C#N)c(Cl)cc2[nH]1 (stereo not drawn) [compound 225]
units-text: %
% Activity: 1

The following molecules each have a reported value; give each one's % Activity.
1. CC(O)(CSc1ccccc1N)c1cc2cc(Cl)c(C(F)(F)F)cc2[nH]1 (stereo not drawn) [compound 123]
2. CC(O)(CS(C)(=O)=O)c1cc2cc([N+](=O)[O-])c(C(F)(F)F)cc2[nH]1 (stereo not drawn) [compound 147]
3. CC(O)(CSC1CCCC1)c1cc2cc([N+](=O)[O-])c(C(F)(F)F)cc2[nH]1 (stereo not drawn) [compound 173]
4. CCSCC(C)(O)c1[nH]c2cc(C(F)(F)F)c([N+](=O)[O-])cc2c1C (racemic) [compound 221]

(A)
["−4", 0, 2, "−1"]

Record % Activity per entry; entries follow.
1. CCSCC(O)(CC)c1cc2cc([N+](=O)[O-])c(C(F)(F)F)cc2[nH]1 (stereo not drawn) [compound 169]
2. CC[S+]([O-])CC(C)(O)c1cc2cc(C(F)(F)F)c([N+](=O)[O-])cc2[nH]1 (mixture of isomers) [compound 230]

(A)
2
0

Reference source for all entries: patent US8394971B2
